Values were extracted from patent US20260167721A1.

Recorded measurements of pKd, one per entry
# system_under_test: T1, recombinant human CD3 epsilon/gamma heterodimer (human, UniProt P07766 23-126; P09693 23-116)
# T1 construct: Recombinant protein in solution (200-50 nM) in the Octet assay; also called hCD3 E/G
# experiment: Octet BLI, mAb on FAB2G sensor, hCD3 E/G 200-50 nM; R^2 1.00
pKd: −log10 of the molar value.
readout_type: pKd

[[record]]
binder = "ABL-CD3-19 (antibody, V domains shown, Chimeric hybridoma mAb: human V, CH1, upper hinge; mouse middle hinge, CH2, CH3) VH: EVQLVESGGGLVKPGGSLRLSCAASGFTLSSYSMNWVRQAPGKGLEWVSSISRSSSYIYYADSVKGRFTISRDNAKNSLYLQMNSLRAEDTAVYYCARERWELLYFDYWGQGTLVTVSS VL: NFMLTQPHSVSESPGKTVTISCTRSSGSIASNYVQWYQQRPGSSPTTVIYEDNQRPSGVPDRFSGSIDSSSNSASLTISGLKTEDEADYYCQSFDNSNRVFGGGTKLTVL"
test_value = 7.20

[[record]]
binder = "ABL-CD3-25 (antibody, V domains shown, Chimeric hybridoma mAb: human V, CH1, upper hinge; mouse middle hinge, CH2, CH3) VH: EVHLVESGGGLVKPGGSLRLSCAASGFTFSSYSMNWVRQAPGKGLEWVSSISSSSTYIYYADSVKGRFTISRDNAKNSLYLQMNSLRAEDTAVYYCAREPRTLGMDYWGQGILVTVSS VL: NFMLTQPHSVSESPGKTVTISCTRSSGSIASNYVQWYQQRPGSSPTTVIYEDNHRPSGVPDRFSGSIDSSSNSASLTISGLKTEDEADYFCQSFDSSNRVFGGGTKLTVL"
test_value = 7.93

[[record]]
binder = "ABL-CD3-15 (antibody, V domains shown, Chimeric hybridoma mAb: human V, CH1, upper hinge; mouse middle hinge, CH2, CH3) VH: EVQLVESGGGLVKPGGSLRLSCAASGFNCSSYSMNWVRQAPGKGLEWVSSISRSSNYIYYADSVKGRFSISRDDAKNSLYLQMNSLRAEDTAVYYCARERWIQLYSDYWGQGILVTVSS VL: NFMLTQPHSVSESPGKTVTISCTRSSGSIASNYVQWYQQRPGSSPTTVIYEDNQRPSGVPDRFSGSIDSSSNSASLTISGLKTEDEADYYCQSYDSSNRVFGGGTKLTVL"
test_value = 8.18

[[record]]
binder = "ABL-CD3-6 (antibody, V domains shown, Chimeric hybridoma mAb: human V, CH1, upper hinge; mouse middle hinge, CH2, CH3) VH: EVQLVDSGGGLVKPGGSLRLSCAASGFTFSSYSMNWVRQAPGKGLEWVSSISSRGSYRNYADSVKGRFTISRDNAKNSLYLQMNSLRAEDTAVYYCARDRRELLLDCWGQGTLVTVSS VL: SYELTQPPSVSVSPGQTARITCSGDALPKKYAYWYQQKSGQAPVLVIYEDSKRPSGIPERFSGSSSGTMATLTISGAQVEDEADYYCYSTDSSGNHSWVFGGGTKLTVL"
test_value = 6.86

